molecular target: JMJD5 (Homo sapiens, UniProt Q8N371); assay: biochemical; settings: read-out: JMJD5 IC50
Sequence (Q8N371 whole entry): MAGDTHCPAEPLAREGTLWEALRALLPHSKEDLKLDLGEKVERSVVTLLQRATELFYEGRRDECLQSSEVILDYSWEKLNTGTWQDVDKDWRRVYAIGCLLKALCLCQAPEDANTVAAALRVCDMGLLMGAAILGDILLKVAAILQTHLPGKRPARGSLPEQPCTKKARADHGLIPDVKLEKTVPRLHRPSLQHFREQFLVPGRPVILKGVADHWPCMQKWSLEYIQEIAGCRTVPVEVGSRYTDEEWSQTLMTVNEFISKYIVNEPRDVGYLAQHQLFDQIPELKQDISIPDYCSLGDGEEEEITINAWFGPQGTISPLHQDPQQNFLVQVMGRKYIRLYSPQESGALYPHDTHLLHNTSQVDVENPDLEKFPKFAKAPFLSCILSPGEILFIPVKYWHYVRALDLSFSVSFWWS
pIC50: −log10 of the molar value.
Result Type: pIC50

[[record]]
compound = "O=C(O)CCc1cs/c(=N\\C(=O)CS(=O)(=O)c2ccccc2)n1O"
test_system = "JMJD5 (Homo sapiens, UniProt Q8N371)"
result = "< 4.00"

[[record]]
compound = "O=C(O)Cc1csc(NC(=O)CS(=O)(=O)c2ccccc2)n1"
test_system = "JMJD5 (Homo sapiens, UniProt Q8N371)"
result = "< 4.00"

[[record]]
compound = "CC1(C(=O)/N=c2\\scc(CC(=O)O)n2O)CCN(S(=O)(=O)c2ccccc2)C1 (stereo not drawn)"
test_system = "JMJD5 (Homo sapiens, UniProt Q8N371)"
result = "< 4.00"


---

// IC50 lookup, one value per entry
target: UniProt:Q12797; test: biochemical
Sequence (Q12797 315-758): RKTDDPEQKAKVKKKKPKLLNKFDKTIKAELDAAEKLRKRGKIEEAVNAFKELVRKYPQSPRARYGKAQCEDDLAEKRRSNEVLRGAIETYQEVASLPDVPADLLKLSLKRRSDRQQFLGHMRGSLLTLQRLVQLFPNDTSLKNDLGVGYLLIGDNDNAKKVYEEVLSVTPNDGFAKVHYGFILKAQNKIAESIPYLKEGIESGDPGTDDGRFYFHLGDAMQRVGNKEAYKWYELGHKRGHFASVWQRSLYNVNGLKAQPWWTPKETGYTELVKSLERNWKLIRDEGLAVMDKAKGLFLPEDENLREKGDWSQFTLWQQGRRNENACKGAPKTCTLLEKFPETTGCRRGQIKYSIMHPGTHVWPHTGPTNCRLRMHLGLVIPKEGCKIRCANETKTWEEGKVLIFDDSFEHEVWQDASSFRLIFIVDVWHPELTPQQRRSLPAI
Result Type: IC50 (µM)

[[record]]
compound = "O=C(CS(=O)(=O)c1ccccc1)/N=c1\\sccn1O"
result_type = "IC50"
limit_sign = ">"
readout_number = 100

[[record]]
compound = "O=C(O)Cc1cs/c(=N\\C(=O)CCC(=O)Nc2ccccc2)n1O"
result_type = "IC50"
limit_sign = "="
readout_number = 3.7

[[record]]
compound = "O=C(O)Cc1csc(=NC(=O)C2CCN(S(=O)(=O)c3cccs3)C2)n1O (centres unmarked)"
result_type = "IC50"
limit_sign = "="
readout_number = 30.3

[[record]]
compound = "O=C(O)Cc1csc(=NC(=O)C2CCN(S(=O)(=O)c3ccc(Cl)cc3)C2)n1O (centres unmarked)"
result_type = "IC50"
limit_sign = "="
readout_number = 28.8

[[record]]
compound = "O=C(O)Cc1csc(=NC(=O)C2CCN(S(=O)(=O)c3ccccc3Cl)C2)n1O (centres unmarked)"
result_type = "IC50"
limit_sign = "="
readout_number = 30.3

[[record]]
compound = "O=C(O)Cc1csc(=NC(=O)C2CCN(S(=O)(=O)c3ccc(Oc4ccccc4)cc3)C2)n1O (centres unmarked)"
result_type = "IC50"
limit_sign = "="
readout_number = 29.8

[[record]]
compound = "COc1ccc(S(=O)(=O)N2CCC(C(=O)N=c3scc(CC(=O)O)n3O)C2)cc1 (centres unmarked)"
result_type = "IC50"
limit_sign = "="
readout_number = 36.6

[[record]]
compound = "CNC(=O)Cc1cs/c(=N\\C(=O)CS(=O)(=O)c2ccccc2)n1O"
result_type = "IC50"
limit_sign = "="
readout_number = 43.6

[[record]]
compound = "CC1(C(=O)/N=c2\\scc(CC(=O)O)n2O)CN(S(=O)(=O)c2ccccc2)C1"
result_type = "IC50"
limit_sign = ">"
readout_number = 100

[[record]]
compound = "O=C(O)Cc1cs/c(=N\\C(=O)CNc2ccccc2)n1O"
result_type = "IC50"
limit_sign = "="
readout_number = 11.1

[[record]]
compound = "O=C(O)Cc1csc(=NC(=O)C2CCN(S(=O)(=O)c3ccc(-c4ccccc4)cc3)C2)n1O (centres unmarked)"
result_type = "IC50"
limit_sign = "="
readout_number = 30.2


---

Result Type: melting point

[[record]]
compound = "O=C(O)Cc1cs/c(=N\\C(=O)CCS(=O)(=O)c2ccccc2)n1O (hydrate or solvate) [compound 15]"
result = "182 to 184 °C"

[[record]]
compound = "O=C(O)Cc1cs/c(=N\\C(=O)CS(=O)(=O)c2ccccc2)n1O (hydrate or solvate) [compound 4]"
result = "179 to 181 °C"

[[record]]
compound = "CC1(C(=O)/N=c2\\scc(CC(=O)O)n2O)CN(S(=O)(=O)c2ccccc2)C1 [compound 25]"
result = "156 to 158 °C"

[[record]]
compound = "O=C(O)Cc1csc(=NC(=O)C2CCN(S(=O)(=O)c3cccs3)C2)n1O (centres unmarked) (hydrate or solvate) [compound 41]"
result = "178 to 180 °C"

[[record]]
compound = "COc1ccc(S(=O)(=O)N2CCC(C(=O)N=c3scc(CC(=O)O)n3O)C2)cc1 (centres unmarked) (hydrate or solvate) [compound 36]"
result = "180 to 183 °C"

[[record]]
compound = "O=C(O)CCc1cs/c(=N\\C(=O)CS(=O)(=O)c2ccccc2)n1O (hydrate or solvate) [compound 13]"
result = "173 to 176 °C"

[[record]]
compound = "Cc1s/c(=N\\C(=O)CS(=O)(=O)c2ccccc2)n(O)c1CC(=O)O (hydrate or solvate) [compound 7]"
result = "181 to 182 °C"

[[record]]
compound = "O=C(O)Cc1cs/c(=N\\C(=O)CCNC(=O)c2ccccc2)n1O [compound 17]"
result = "180 to 183 °C"

